# TEST PROTOCOL: Elimination rate constant in Sprague-Dawley rat at 25 mg/kg, IG measured for 24 hrs by LC-MS/MS analysis
# Assay type: ADME, organism-based
# ASSAY SETUP: in vivo, po

{"columns": ["SMILES STRUCTURE", "k el at 24 h [s⁻¹]"],
 "data": [
  ["O=c1cnc(Cc2ccccc2)nn1Cc1ccc(Cl)cc1Cl", "4.17e-05"]
]}

###

# TEST PROTOCOL: Half life in Sprague-Dawley rat at 1.8 mg/kg, iv measured for 24 hrs by LC-MS/MS analysis
# Type: ADME, organism-based
# ASSAY SETUP: in vivo

{"columns": ["SMILES STRUCTURE", "half-life / h"],
 "data": [
  ["O=c1cnc(Cc2ccccc2)nn1Cc1ccc(Cl)cc1Cl", 8.02]
]}
